Measured values drawn from BigSolDB 2.1 for this set.

conditions: in acetone, 313.15 K
METRIC: solubility (mole fraction)

Ask: State its solubility (mole fraction): `Cc1nc(-c2ccc(OCC(C)C)c(C#N)c2)sc1C(=O)O`
Reply: 0.0129

###

details: in ethanol, 318.15 K
METRIC: solubility (mole fraction)
Give a plain numeric answer without units written out.

Ask: State its solubility (mole fraction): `Cc1nc(-c2ccc(OCC(C)C)c(C#N)c2)sc1C(=O)O`
Reply: 0.00836

###

conditions: in ethanol, 293.15 K
METRIC: solubility (mole fraction)
Give a plain numeric answer without units written out.

Ask: State its solubility (mole fraction): `Cc1nc(-c2ccc(OCC(C)C)c(C#N)c2)sc1C(=O)O`
Reply: 0.00122
